Target: EPHB1 (UniProt P54762)
Sequence (P54762 whole entry, looked up): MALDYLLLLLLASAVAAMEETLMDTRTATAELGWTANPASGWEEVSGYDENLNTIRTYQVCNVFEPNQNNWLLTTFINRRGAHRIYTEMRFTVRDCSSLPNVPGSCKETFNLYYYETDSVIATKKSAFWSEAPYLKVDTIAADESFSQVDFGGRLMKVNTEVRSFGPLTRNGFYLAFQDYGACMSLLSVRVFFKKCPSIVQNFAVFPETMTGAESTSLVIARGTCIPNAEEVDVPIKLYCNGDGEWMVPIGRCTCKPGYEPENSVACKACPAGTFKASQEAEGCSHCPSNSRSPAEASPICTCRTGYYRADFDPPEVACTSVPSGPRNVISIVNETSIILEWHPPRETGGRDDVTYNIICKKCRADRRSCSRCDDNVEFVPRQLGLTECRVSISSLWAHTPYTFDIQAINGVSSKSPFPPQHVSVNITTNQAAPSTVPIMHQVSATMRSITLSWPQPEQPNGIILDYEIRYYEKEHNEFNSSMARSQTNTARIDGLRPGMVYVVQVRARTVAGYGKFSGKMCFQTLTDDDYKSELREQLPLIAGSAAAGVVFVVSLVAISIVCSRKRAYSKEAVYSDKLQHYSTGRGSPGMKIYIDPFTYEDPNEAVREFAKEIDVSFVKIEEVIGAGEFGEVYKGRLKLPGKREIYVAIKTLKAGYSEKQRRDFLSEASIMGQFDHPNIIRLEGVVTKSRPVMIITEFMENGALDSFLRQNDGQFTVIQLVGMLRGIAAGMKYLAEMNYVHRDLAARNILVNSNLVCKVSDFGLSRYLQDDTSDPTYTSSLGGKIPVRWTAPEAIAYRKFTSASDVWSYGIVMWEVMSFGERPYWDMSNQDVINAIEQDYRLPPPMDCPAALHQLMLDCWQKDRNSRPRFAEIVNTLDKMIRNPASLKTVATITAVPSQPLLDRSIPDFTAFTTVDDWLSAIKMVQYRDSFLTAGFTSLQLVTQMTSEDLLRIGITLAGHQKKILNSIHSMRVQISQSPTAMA
Test: phosphorylation enrichment, bacterial display (enrichment ratio); higher = better substrate or ligand; peptides without Tyr show the background;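 also: 11-residue human phosphosite peptides and single-mutation variants displayed on the E. coli surface, counted by deep sequencing, each peptide's frequency after selection divided by its frequency in the unselected input library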;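 also: frequency after pTyr selection over input frequency; kinase dosed for 20-30% of maximal phosphorylation in three min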
Definition: the class of an entry is the range in interval 1: < 0.4; interval 2: ≥ 0.4 and < 0.6; interval 3: ≥ 0.6 that contains its phosphorylation enrichment.

SEQUENCE_RECORD: VSYDEYRYRSF [CFTR_Y515_V520F]
CLASS: interval 3
--
SEQUENCE_RECORD: ISKTWYSAEQF [CD207_Y217_P213S]
CLASS: interval 3
--
SEQUENCE_RECORD: SRVTQYERNFE [SNX1_Y463_D466N]
CLASS: interval 2
--
SEQUENCE_RECORD: KDFTIHNPNLL [VANGL1_Y290_Y290H]
CLASS: interval 2
--
SEQUENCE_RECORD: SSNLFYRCLTA [CNGA3_Y169_W171C_YF]
CLASS: interval 3
--
SEQUENCE_RECORD: PLDGEYVTLQI [TP53_Y327_F328V]
CLASS: interval 3

# classify by phosphorylation enrichment band: EPSLVYMVTKI [CPS1_Y768_D767V]
interval 2

Please classify: SARFPYLMAEK [LDHB_Y173_R172P]
interval 1

Exercise: read the entry AVLALYNSTRD [TGFB1_Y81] and state which class it falls under.
interval 2

Band for CSTIHYNFMCN [TP53_Y234_T230S_YF] ?
interval 1

Consider RQQQDYWLMDV [ANPEP_Y600_I603M] . To which phosphorylation enrichment class does it belong?
interval 3

Which class holds EGTGHYLCNAC [GATA5_Y208_D203E] ?
interval 1

Given TSPALYRLDLD [TRIL_Y352_A347T] , name the class its phosphorylation enrichment places it in.
interval 2

Class? Entry: ILKPDYQPLAI [HYDIN_Y1072]
interval 2

Bin this entry: RNNIEYVRDIG [MUSK_Y577]
interval 2

Which category does the recorded phosphorylation enrichment put FADTAYNFRHG [PAH_Y166_I164T_YF] in?
interval 1

# bin label for VDGFVYKLHPS [GCK_Y413_S411F]
interval 2

Lab note: which band did HRGYLYLAIEY [TEK_Y899] land in?
interval 2

State the band of PSELFYSKIGP [SMG1_Y2254_YF]
interval 3

// return the class label for SPDMLYQYLKQ [RPAP3_Y567]
interval 3

Band for the recorded phosphorylation enrichment of VDASYCGGRGV [ANTXR2_Y381_Y381C] ?
interval 1
